tested on: E. coli DH5α/pLBII; assay: Broth microdilution MIC assay, empty vector control strain; assay type: cell-based; conditions: Escherichia coli, read-out: E. coli DH5α/pLBII Microbiological Activity (MIC)
# MIC per record follows
observed_property: MIC

1) CCN1CCN(CC(=O)NC(C(=O)N[C@H]2Cc3cccc(C(=O)O)c3OB2O)c2csc(N)n2)C(=O)C1=O (stereo partly drawn): 32 to 64 µg/mL
2) Nc1nc(C(NC(=O)N2CCN(CCF)C(=O)C2=O)C(=O)N[C@H]2Cc3cccc(C(=O)O)c3OB2O)c(Cl)s1 (stereo partly drawn): 8 to 16 µg/mL
3) COc1cc(C(=O)NC(C(=O)N[C@H]2Cc3cccc(C(=O)O)c3OB2O)c2csc(N)n2)ccn1 (stereo partly drawn): > 512 µg/mL

----------
system: E. coli DH5α/pLBII; assay: Broth microdilution MIC assay, empty vector control strain; type: cell-based; settings: Escherichia coli, read-out: E. coli DH5α/pLBII Microbiological Activity (MIC)
observed_property: MIC

1. N[C@H](C(=O)N[C@H]1Cc2cccc(C(=O)O)c2OB1O)c1ccccc1: 128 to 256 µg/mL
2. CCN1CCN(C(=O)N[C@H](C(=O)N[C@H]2Cc3cccc(C(=O)O)c3OB2O)[C@H](O)CO)C(=O)C1=O: > 512 µg/mL
3. Nc1nc([C@H](N)C(=O)N[C@H]2Cc3cccc(C(=O)O)c3OB2O)cs1: 128 to 256 µg/mL
4. Nc1nc(C(NS(=O)(=O)N2CCOCC2)C(=O)N[C@H]2Cc3cccc(C(=O)O)c3OB2O)cs1 (some centres unmarked): 128 to 256 µg/mL
5. CCN1CCN(C(=O)N[C@@H](C(=O)N[C@H]2Cc3cccc(C(=O)O)c3OB2O)[C@H](O)CO)C(=O)C1=O: 32 to 64 µg/mL
6. CCCCN1CCN(C(=O)NC(C(=O)N[C@H]2Cc3cccc(C(=O)O)c3OB2O)c2csc(N)n2)C(=O)C1=O (some centres unmarked): 32 to 64 µg/mL
7. Nc1nc(C(NC(=O)N2CCN(CCO)C(=O)C2=O)C(=O)N[C@H]2Cc3cccc(C(=O)O)c3OB2O)cs1 (some centres unmarked): 8 to 16 µg/mL
8. CCC(O)[C@@H](NC(=O)N1CCN(CC)C(=O)C1=O)C(=O)N[C@H]1Cc2cccc(C(=O)O)c2OB1O (single isomer, unassigned): 32 to 64 µg/mL
9. CN(C)C(=O)NC(C(=O)N[C@H]1Cc2cccc(C(=O)O)c2OB1O)c1csc(N)n1 (some centres unmarked): 128 to 256 µg/mL
10. COc1ccc([C@H](N)C(=O)N[C@H]2Cc3cccc(C(=O)O)c3OB2O)cc1: > 512 µg/mL
11. Nc1nc(C(NC(=O)CO)C(=O)N[C@H]2Cc3cccc(C(=O)O)c3OB2O)cs1 (some centres unmarked): 32 to 64 µg/mL
12. CCN1CCN(C(=O)NC(C(=O)N[C@H]2Cc3cccc(C(=O)O)c3OB2O)c2csc(N)n2)CC1=O (some centres unmarked): 128 to 256 µg/mL
13. Nc1nc(C(=O)NC(C(=O)N[C@H]2Cc3cccc(C(=O)O)c3OB2O)c2csc(N)n2)cs1 (some centres unmarked): 32 to 64 µg/mL
14. Nc1nc(C(NC(=O)N2CCN(CCCF)C(=O)C2=O)C(=O)N[C@H]2Cc3cccc(C(=O)O)c3OB2O)cs1 (some centres unmarked): 8 to 16 µg/mL
15. CC(C)(O/N=C(\C(=O)N[C@@H]1C(=O)N2C(C(=O)[O-])=C(C[n+]3ccccc3)CS[C@H]12)c1csc(N)n1)C(=O)O [ceftazidime, reference compound]: < 1 µg/mL
16. CCN1CCN(C(=O)N[C@H](Cc2c[nH]cn2)C(=O)N[C@H]2Cc3cccc(C(=O)O)c3OB2O)C(=O)C1=O: 128 to 256 µg/mL
17. N[C@@H](C(=O)N[C@H]1Cc2cccc(C(=O)O)c2OB1O)c1ccc(O)cc1: > 512 µg/mL
18. Nc1nc(C(NC(=O)N2CCN(CC(F)F)C(=O)C2=O)C(=O)N[C@H]2Cc3cccc(C(=O)O)c3OB2O)cs1 (some centres unmarked): 8 to 16 µg/mL
19. Nc1nc(C(NC(=O)N2CCNC2=O)C(=O)N[C@H]2Cc3cccc(C(=O)O)c3OB2O)cs1 (some centres unmarked): 32 to 64 µg/mL
20. N[C@H](C(=O)N[C@H]1Cc2cccc(C(=O)O)c2OB1O)c1ccc(O)cc1: 128 to 256 µg/mL
21. CCN1CCN(C(=O)NC(C(=O)N[C@H]2Cc3cc(OC)cc(C(=O)O)c3OB2O)c2csc(N)n2)C(=O)C1=O (some centres unmarked): 32 to 64 µg/mL
22. CCNC(=O)NC(C(=O)N[C@H]1Cc2cccc(C(=O)O)c2OB1O)c1csc(N)n1 (some centres unmarked): 32 to 64 µg/mL
23. COC(=O)C(=O)NC(C(=O)N[C@H]1Cc2cccc(C(=O)O)c2OB1O)c1csc(N)n1 (some centres unmarked): 32 to 64 µg/mL
24. Nc1nc(C(NC(=O)N2CCOCC2)C(=O)N[C@H]2Cc3cccc(C(=O)O)c3OB2O)cs1 (some centres unmarked): 128 to 256 µg/mL
25. CCN1CCN(C(=O)N[C@H](C)C(=O)N[C@H]2Cc3cccc(C(=O)O)c3OB2O)C(=O)C1=O: 128 to 256 µg/mL
26. NCCN1CCN(C(=O)NC(C(=O)N[C@H]2Cc3cccc(C(=O)O)c3OB2O)c2csc(N)n2)C(=O)C1=O (some centres unmarked): 32 to 64 µg/mL
27. COCCN1CCN(C(=O)NC(C(=O)N[C@H]2Cc3cccc(C(=O)O)c3OB2O)c2csc(N)n2)C(=O)C1=O (some centres unmarked): 32 to 64 µg/mL
28. Cn1ccc(C(=O)NC(C(=O)N[C@H]2Cc3cccc(C(=O)O)c3OB2O)c2csc(N)n2)cc1=O (some centres unmarked): 32 to 64 µg/mL
29. Nc1nc(C(NC(=O)N2CCS(=O)(=O)CC2)C(=O)N[C@H]2Cc3cccc(C(=O)O)c3OB2O)cs1 (some centres unmarked): 32 to 64 µg/mL

----------
biological target: PBP3 from Escherichia coli (Escherichia coli); construct: made in house; assay: Fluorescence polarization competition binding assay with Bocillin-FL
Sequence (P0AD68 1-577): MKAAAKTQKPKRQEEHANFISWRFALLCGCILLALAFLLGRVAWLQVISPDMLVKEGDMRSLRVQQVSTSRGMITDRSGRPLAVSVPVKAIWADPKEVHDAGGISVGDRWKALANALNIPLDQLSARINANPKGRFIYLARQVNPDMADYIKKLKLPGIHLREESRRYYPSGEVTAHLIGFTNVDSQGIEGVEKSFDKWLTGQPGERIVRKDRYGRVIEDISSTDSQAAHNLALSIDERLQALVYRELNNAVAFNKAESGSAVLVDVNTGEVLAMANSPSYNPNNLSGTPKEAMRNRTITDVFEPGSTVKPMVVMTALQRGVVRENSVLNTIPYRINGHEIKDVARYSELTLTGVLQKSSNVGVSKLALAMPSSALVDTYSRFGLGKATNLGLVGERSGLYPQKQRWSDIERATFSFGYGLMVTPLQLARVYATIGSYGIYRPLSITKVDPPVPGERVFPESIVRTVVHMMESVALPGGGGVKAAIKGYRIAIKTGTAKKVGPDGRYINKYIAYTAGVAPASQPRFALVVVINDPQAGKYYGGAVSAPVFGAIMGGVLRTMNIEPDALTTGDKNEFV
# EC50 per record follows
observed_property: EC50

1. CN1CCN(C(=O)NC(C(=O)N[C@H]2Cc3cccc(C(=O)O)c3OB2O)c2csc(N)n2)C(=O)C1=O (some centres unmarked): 30 to 500 µM
2. CCN1CCN(C(=O)N[C@@H](C(=O)N[C@H]2Cc3cccc(C(=O)O)c3OB2O)[C@@H](C)O)C(=O)C1=O: 30 to 500 µM
3. C[C@@H](O)[C@@H](NC(=O)N1CCN(CCF)C(=O)C1=O)C(=O)N[C@H]1Cc2cccc(C(=O)O)c2OB1O: > 500 µM
4. CCCCCCCN1CCN(C(=O)NC(C(=O)N[C@H]2Cc3cccc(C(=O)O)c3OB2O)c2csc(N)n2)C(=O)C1=O (some centres unmarked): < 30 µM
5. Nc1nc(C(NC(=O)N2CCS(=O)(=O)CC2)C(=O)N[C@H]2Cc3cccc(C(=O)O)c3OB2O)cs1 (some centres unmarked): 30 to 500 µM
6. CCN1CCN(C(=O)N[C@@H](C(=O)N[C@H]2Cc3cccc(C(=O)O)c3OB2O)C(C)(C)O)C(=O)C1=O: 30 to 500 µM
7. Nc1nc(C(NC(=O)N2CCN(CCF)C(=O)C2=O)C(=O)N[C@H]2Cc3cccc(C(=O)O)c3OB2O)c(Cl)s1 (some centres unmarked): 30 to 500 µM
8. CCN1CCN(C(=O)N[C@@H](CO)C(=O)N[C@H]2Cc3cccc(C(=O)O)c3OB2O)C(=O)C1=O: > 500 µM
9. Nc1nc(C(NC(=O)N2CCN(CC3CC3)C(=O)C2=O)C(=O)N[C@H]2Cc3cccc(C(=O)O)c3OB2O)cs1 (some centres unmarked): 30 to 500 µM
10. CC(C)N1CCN(C(=O)NC(C(=O)N[C@H]2Cc3cccc(C(=O)O)c3OB2O)c2csc(N)n2)C(=O)C1=O (some centres unmarked): 30 to 500 µM
11. Nc1nc(C(NC(=O)N2CCN(CCO)C(=O)C2=O)C(=O)N[C@H]2Cc3cccc(C(=O)O)c3OB2O)cs1 (some centres unmarked): 30 to 500 µM
12. NCCN1CCN(C(=O)NC(C(=O)N[C@H]2Cc3cccc(C(=O)O)c3OB2O)c2csc(N)n2)C(=O)C1=O (some centres unmarked): 30 to 500 µM
13. CCN1CCN(C(=O)N[C@@H](C(=O)N[C@H]2Cc3cccc(C(=O)O)c3OB2O)c2ccccc2)C(=O)C1=O: < 30 µM
14. Nc1nc(C(=O)NC(C(=O)N[C@H]2Cc3cccc(C(=O)O)c3OB2O)c2csc(N)n2)cs1 (some centres unmarked): 30 to 500 µM
